The values you see were collected from patent US11427783B2.

I'd be grateful if you could share measured Volatility (μg/l air) for these entries.
Assay Notes: Volatility of perfuming compounds in air
Format: physicochemical
Run Conditions: Table 10, perfuming compounds having a woody note
Give bare numbers, in μg/l air.

A selection of reference data follows.
# Molecule, Readout Name, Measurement
rows = [
    ("CC(C)(C)C1CCC(=O)CC1", "Volatility (μg/l air)", 755.28),
    ("COC(OC)C(C)(C)CC=C(C)C", "Volatility (μg/l air)", 1311.32),
    ("CCC(O)COC1CCCCC1C(C)(C)C (racemic)", "Volatility (μg/l air)", 205.05),
]

Give measured Volatility (μg/l air) for every item shown.
1. CCCCCC1C(=O)CCC1CC(=O)OC (single isomer, unassigned; (+))
2. CC(=O)OCCC1=CCC2CC1C2(C)C (stereo not drawn)

1: 1.71; 2: 60.02

###

Assay Notes: Volatility of perfuming compounds in air
Format: physicochemical
Run Conditions: Table 4, watery note
Criterion: Volatility meeting or surpassing 20 μg/l air. Met: t. Not met: f.

Some solved entries appear below for comparison.
# Molecule, Class
measured = [
    ("COC(=O)c1c(C)cc(O)c(C)c1O", "f"),
    ("CC(C=O)Cc1ccc(C(C)(C)C)cc1 (racemic)", "f"),
    ("CCCCCCCCCC=O", "t"),
    ("CCCCCCCCCC(C)C=O (racemic) [(+−)-2-methylundecanal]", "t"),
    ("CC(C)CC1CC(C)(O)CCO1 (racemic)", "t"),
]

Is Volatility at least 20 μg/l air? Consider CC/C=C\CCCCCO [(Z)-6-NONEN-1-OL]
f

Is Volatility at least 20 μg/l air? Consider CC(C)=CCCC(C)CCCC(C)C=O (racemic)
f

Is Volatility at least 20 μg/l air? Consider C=CCCCCCCCCC=O
t

Is Volatility at least 20 μg/l air? Consider CCCCCCC#CC(=O)OC [METHYL 2-NONYNOATE]
t

Is Volatility at least 20 μg/l air? Consider CCCc1ccc2c(c1)OCC(=O)CO2 [7-PROPYL-2H,4H-1,5-BENZODIOXEPIN-3-ONE]
f

Is Volatility at least 20 μg/l air? Consider CC(C)(C)c1ccc2c(c1)OCC(=O)CO2
f

Is Volatility at least 20 μg/l air? Consider CC(C=O)Cc1ccc2c(c1)OCO2 (racemic)
f

Is Volatility at least 20 μg/l air? Consider CC/C=C\CC/C=C/CO
t

###

Assay Notes: Volatility of perfuming compounds in air
Assay type: physicochemical
Run Conditions: Table 6, perfuming compounds having a fruity note
Readout Name: Volatility (μg/l air)
Lab note: write values as number then unit, every time.

A selection of reference data follows.
# Compound, Measurement
records = [
    ("CC1COCc2cc3c(cc21)C(C)(C)C(C)C3(C)C (racemic)", "1.59 μg/l air"),
    ("CCOC(=O)C1OC1(C)c1ccccc1 (centres unmarked) [ETHYL 2,3-EPDXY-3-PHENYLBUTANOATE]", "12.97 μg/l air"),
    ("CCCCCCC1CCCC(=O)O1 (centres unmarked) [6-hexyltetrahydro-2H-pyran-2-one]", "4.64 μg/l air"),
]

Give measured Volatility (μg/l air) for every item shown.
1. CCCCC[C@@H]1OC(=O)C[C@H]1C (racemic) [(+−)-TRANS-3-METHYL-4-NONANOLIDE]
2. CCCCCCC1CCC(=O)O1 (racemic) [(+−)-4-DECANOLIDE]

1: 21.05 μg/l air; 2: 10.49 μg/l air
